- PROCEDURE_SUMMARY: Solid stability, 1 week
- Format: physicochemical
- ASSAY_SETUP: 40° C./75% RH
Structures can show the parent of a compound that is named as a salt.
Exercise: for every item that follows, state its recorded Purity/initial purity (%).
Write down the numeric answer in % and omit the unit.

Challenge: What value of Purity/initial purity (%) has been reported for the following compound? C[C@H](Cc1cnn[nH]1)OCC(=O)N1Cc2cnc(NC3Cc4ccccc4C3)nc2C1 [Free base crystal form A]
Response given: 100.0

Challenge: What value of Purity/initial purity (%) has been reported for the following compound? C[C@H](Cc1cnn[nH]1)OCC(=O)N1Cc2cnc(NC3Cc4ccccc4C3)nc2C1 [Crystal form A of benzenesulfonate]
Response given: 99.9

Challenge: What value of Purity/initial purity (%) has been reported for the following compound? C[C@H](Cc1cnn[nH]1)OCC(=O)N1Cc2cnc(NC3Cc4ccccc4C3)nc2C1 [Crystal form A of fumarate]
Response given: 100.1

Challenge: What value of Purity/initial purity (%) has been reported for the following compound? C[C@H](Cc1cnn[nH]1)OCC(=O)N1Cc2cnc(NC3Cc4ccccc4C3)nc2C1 [Crystal form A of hydrochloride]
Response given: 79.9

---

- PROCEDURE_SUMMARY: Thermodynamic solubility assay
- Type: physicochemical
- ASSAY_SETUP: FeSSIF solution, thermodynamic from solid; FeSSIF, pH 5.8, room temperature overnight; read-out: Solubility FeSSIF (pH 5.8)
PROPERTY_MEASURED: solubility (mg/mL)
Write down the numeric answer in mg/mL and omit the unit.

Challenge: What value of solubility has been reported for the following compound? C[C@H](Cc1cnn[nH]1)OCC(=O)N1Cc2cnc(NC3Cc4ccccc4C3)nc2C1
Response given: 260

---

- PROCEDURE_SUMMARY: In vivo pharmacokinetic assay in mice
- ASSAY_SETUP: male, ICR, mouse, in vivo, oral intragastric administration 10 mg/kg
PROPERTY_MEASURED: half-life (min)
Write down the numeric answer in min and omit the unit.

Challenge: What value of half-life has been reported for the following compound? O=C(COCCc1cnn[nH]1)N1Cc2cnc(NC3Cc4ccccc4C3)nc2C1 [Control compound, reference compound]
Response given: 49.8

---

- PROCEDURE_SUMMARY: Thermodynamic solubility assay
- Assay type: physicochemical
- ASSAY_SETUP: FaSSGF solution, fassgf or other biorelevant, thermodynamic from solid; heading: Solubility FaSSGF; FaSSGF, pH 1.6, room temperature overnight
PROPERTY_MEASURED: solubility (µg/mL)
Write down the numeric answer in µg/mL and omit the unit.

Challenge: What value of solubility has been reported for the following compound? C[C@H](Cc1cnn[nH]1)OCC(=O)N1Cc2cnc(NC3Cc4ccccc4C3)nc2C1
Response given: 1040

---

- PROCEDURE_SUMMARY: In vivo pharmacokinetic assay in mice
- ASSAY_SETUP: male, ICR, mouse, in vivo, intravenous injection 1 mg/kg, read-out: Vz
PROPERTY_MEASURED: Vd (L/kg)
Write down the numeric answer in L/kg and omit the unit.

Challenge: What value of Vd has been reported for the following molecule? O=C(COCCc1cnn[nH]1)N1Cc2cnc(NC3Cc4ccccc4C3)nc2C1 [Control compound, reference compound]
Response given: 1.67

---

- PROCEDURE_SUMMARY: Pharmacokinetic assay (crystal form) in mice
- Format: in vivo
- ASSAY_SETUP: male, ICR, mouse, plasma, oral intragastric administration 10 mg/kg
- Method: In vivo pharmacokinetic assay in mice was performed, wherein the used mice were 9 male ICR mice weighing 20-25 g and fasted overnight. 9 mice were taken and orally intragastrically administered with 10 mg/kg of the compound. […] Blood samples were centrifuged at 8000 rpm for 6 min at 4° C., and plasma was collected and stored at −20° C. […] The major pharmacokinetic parameters were analyzed using WinNonlin 7.0 software and a non-compartmental model.
PROPERTY_MEASURED: Tmax (min)
Write down the numeric answer in min and omit the unit.

Challenge: What value of Tmax has been reported for the following compound? C[C@H](Cc1cnn[nH]1)OCC(=O)N1Cc2cnc(NC3Cc4ccccc4C3)nc2C1 [Crystal form A of benzenesulfonate]
Response given: 30

Challenge: What value of Tmax has been reported for the following compound? O=C(COCCc1cnn[nH]1)N1Cc2cnc(NC3Cc4ccccc4C3)nc2C1 [Control compound, reference compound]
Response given: 15

---

- PROCEDURE_SUMMARY: In vivo pharmacokinetic assay in rats
- ASSAY_SETUP: male, SD, rat, plasma, intravenous injection 1 mg/kg, read-out: Vz
- Protocol: In vivo pharmacokinetic assay in rats was performed, wherein the used rats were 6 male SD rats weighing 180-240 g and fasted overnight. […] Blood samples were centrifuged at 8000 rpm for 6 min at 4° C., and plasma was collected and stored at −20° C. […] The major pharmacokinetic parameters were analyzed using WinNonlin 7.0 software and a non-compartmental model.
PROPERTY_MEASURED: Vd (L/kg)
Write down the numeric answer in L/kg and omit the unit.

Challenge: What value of Vd has been reported for the following compound? C[C@H](Cc1cnn[nH]1)OCC(=O)N1Cc2cnc(NC3Cc4ccccc4C3)nc2C1
Response given: 0.21

---

- PROCEDURE_SUMMARY: Pharmacokinetic assay (crystal form) in mice
- Assay type: in vivo
- ASSAY_SETUP: male, ICR, mouse, plasma, oral intragastric administration 10 mg/kg
PROPERTY_MEASURED: AUC(0-t) (ng·h/mL)
Write down the numeric answer in ng·h/mL and omit the unit.

Challenge: What value of AUC(0-t) has been reported for the following compound? O=C(COCCc1cnn[nH]1)N1Cc2cnc(NC3Cc4ccccc4C3)nc2C1 [Control compound, reference compound]
Response given: 2900

Challenge: What value of AUC(0-t) has been reported for the following compound? C[C@H](Cc1cnn[nH]1)OCC(=O)N1Cc2cnc(NC3Cc4ccccc4C3)nc2C1 [Crystal form A of benzenesulfonate]
Response given: 7430

---

- PROCEDURE_SUMMARY: Solid stability, 1 week
- Type: physicochemical
- ASSAY_SETUP: 25° C./60% RH
Where a name gives a salt, the structure may show the parent alone.
Exercise: for every item that follows, state its recorded Purity/initial purity (%).
Write down the numeric answer in % and omit the unit.

Challenge: What value of Purity/initial purity (%) has been reported for the following molecule? C[C@H](Cc1cnn[nH]1)OCC(=O)N1Cc2cnc(NC3Cc4ccccc4C3)nc2C1 [Crystal form A of hydrochloride]
Response given: 99.5

Challenge: What value of Purity/initial purity (%) has been reported for the following molecule? C[C@H](Cc1cnn[nH]1)OCC(=O)N1Cc2cnc(NC3Cc4ccccc4C3)nc2C1 [Crystal form A of benzenesulfonate]
Response given: 100.0

Challenge: What value of Purity/initial purity (%) has been reported for the following molecule? C[C@H](Cc1cnn[nH]1)OCC(=O)N1Cc2cnc(NC3Cc4ccccc4C3)nc2C1 [Crystal form A of fumarate]
Response given: 100.1

Challenge: What value of Purity/initial purity (%) has been reported for the following molecule? C[C@H](Cc1cnn[nH]1)OCC(=O)N1Cc2cnc(NC3Cc4ccccc4C3)nc2C1 [Free base crystal form A]
Response given: 100.0

---

- PROCEDURE_SUMMARY: In vivo pharmacokinetic assay in mice
- ASSAY_SETUP: male, ICR, mouse, plasma, intravenous injection 1 mg/kg
PROPERTY_MEASURED: clearance
Remember to quote the unit after the number.

Challenge: What value of clearance has been reported for the following molecule? C[C@H](Cc1cnn[nH]1)OCC(=O)N1Cc2cnc(NC3Cc4ccccc4C3)nc2C1
Response given: 26.7 mL/min/kg

---

- PROCEDURE_SUMMARY: Hygroscopicity by dynamic vapor sorption (DVS)
- Type: physicochemical
- ASSAY_SETUP: 0% RH to 95% RH to 0% RH, 25° C.
Where a name gives a salt, the structure may show the parent alone.
PROPERTY_MEASURED: After DVS test Whether the crystal form is changed

• C[C@H](Cc1cnn[nH]1)OCC(=O)N1Cc2cnc(NC3Cc4ccccc4C3)nc2C1 [Crystal form A of hydrochloride] = Yes*
• C[C@H](Cc1cnn[nH]1)OCC(=O)N1Cc2cnc(NC3Cc4ccccc4C3)nc2C1 [Free base crystal form A] = No
• C[C@H](Cc1cnn[nH]1)OCC(=O)N1Cc2cnc(NC3Cc4ccccc4C3)nc2C1 [Crystal form A of benzenesulfonate] = No
• C[C@H](Cc1cnn[nH]1)OCC(=O)N1Cc2cnc(NC3Cc4ccccc4C3)nc2C1 [Crystal form A of fumarate] = No

---

- PROCEDURE_SUMMARY: Solid stability, 1 week
- Type: physicochemical
- ASSAY_SETUP: 40° C./75% RH, XRPD
Counter-ions that a name gives are not always drawn.
PROPERTY_MEASURED: Crystal form change

* C[C@H](Cc1cnn[nH]1)OCC(=O)N1Cc2cnc(NC3Cc4ccccc4C3)nc2C1 [Crystal form A of hydrochloride] | No*
* C[C@H](Cc1cnn[nH]1)OCC(=O)N1Cc2cnc(NC3Cc4ccccc4C3)nc2C1 [Free base crystal form A] | No
* C[C@H](Cc1cnn[nH]1)OCC(=O)N1Cc2cnc(NC3Cc4ccccc4C3)nc2C1 [Crystal form A of fumarate] | No
* C[C@H](Cc1cnn[nH]1)OCC(=O)N1Cc2cnc(NC3Cc4ccccc4C3)nc2C1 [Crystal form A of benzenesulfonate] | No
